- assay target: Steryl-sulfatase (Homo sapiens) (UniProt P08842)
- Sequence (P08842 whole entry): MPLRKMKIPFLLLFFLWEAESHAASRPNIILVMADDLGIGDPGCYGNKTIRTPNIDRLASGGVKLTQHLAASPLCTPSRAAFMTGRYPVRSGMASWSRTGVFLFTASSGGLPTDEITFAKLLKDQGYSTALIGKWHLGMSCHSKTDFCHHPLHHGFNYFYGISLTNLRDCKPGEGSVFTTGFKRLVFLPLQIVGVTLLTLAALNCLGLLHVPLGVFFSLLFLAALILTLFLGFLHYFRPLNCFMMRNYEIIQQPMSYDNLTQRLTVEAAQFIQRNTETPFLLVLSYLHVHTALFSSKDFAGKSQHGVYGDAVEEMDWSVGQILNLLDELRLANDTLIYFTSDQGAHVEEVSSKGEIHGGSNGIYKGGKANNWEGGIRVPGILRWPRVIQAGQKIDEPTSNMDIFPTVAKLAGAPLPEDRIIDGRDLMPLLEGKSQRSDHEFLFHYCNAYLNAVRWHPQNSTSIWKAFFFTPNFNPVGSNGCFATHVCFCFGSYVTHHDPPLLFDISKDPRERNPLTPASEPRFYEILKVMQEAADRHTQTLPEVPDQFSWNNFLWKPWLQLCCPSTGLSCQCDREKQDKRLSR
- protocol details: Inhibitory activity against estrone sulfatase relative to Estrone-3-sulfamate (EMATE)
metric name: Potency

P: CCCCCCCCCC(=O)c1ccc(OS(N)(=O)=O)cc1
Q: CCCCCCCCC(=O)c1ccc(OS(N)(=O)=O)cc1
Query: Hi there! Just curious which has the higher Potency between P and Q . Mark your selection by writing its label.
Reply: Q
(Q: 0.147, P: 0.0385)

1: NS(=O)(=O)Oc1ccc(C=O)cc1
2: NS(=O)(=O)Oc1ccc(C(=O)Cc2ccccc2)cc1
Query: Could you tell me which of 1 and 2 has the lower Potency reading? Identify your pick by its label.
Reply: 1
(1: 0.0019, 2: 0.0152)

====

- protocol details: Partition coefficient (logP)
- Format: physicochemical
- test settings: octanol/water
metric name: logP

compound	logP
CCCCCCCC(=O)c1ccc(OS(N)(=O)=O)cc1	3.7
CCCCCCCCC(=O)c1ccc(OS(N)(=O)=O)cc1	4.1
CCCCC(=O)c1ccc(OS(N)(=O)=O)cc1	2.5
NS(=O)(=O)Oc1ccc(C(=O)/C=C/c2ccccc2)cc1	3.4

a: NS(=O)(=O)Oc1ccc(C(=O)Cc2ccccc2)cc1
b: CC(=O)c1ccc(OS(N)(=O)=O)cc1
c: Cc1cc(=O)oc2cc(OS(N)(=O)=O)ccc12
Query: hey, can you rank those compounds up there by logP? biggest number first please Form entry: labels listed in requested order.
Reply: a, c, b
(a: 2.9, c: 1.7, b: 1.1)

A: CCCCCCC(=O)c1ccc(OS(N)(=O)=O)cc1
B: CCCC(=O)c1ccc(OS(N)(=O)=O)cc1
Query: From the recorded data, which exceeds the other in logP: A or B ? Choose, then provide that item's label.
Reply: A
(A: 3.3, B: 2.1)

P: NS(=O)(=O)Oc1ccc(C(=O)c2ccccc2)cc1
Q: NS(=O)(=O)Oc1ccc(C=O)cc1
Query: I need your help: which of the pair P , Q has higher logP? // output: label of the selected item
Reply: P
(P: 2.9, Q: 1.4)

====

- assay target: Steryl-sulfatase (Homo sapiens)
- protocol details: Inhibitory activity against estrone sulfatase relative to 4-Methylcoumarin-7-O-sulfamate derivative (COUMATE)
metric name: Potency

Reference set (8 entries):
compound	Potency
CC(=O)c1ccc(OS(N)(=O)=O)cc1	0.0397
NS(=O)(=O)Oc1ccc(C=O)cc1	0.0472
CCCCCCCCCC(=O)c1ccc(OS(N)(=O)=O)cc1	0.923
NS(=O)(=O)Oc1ccc(C(=O)/C=C/c2ccccc2)cc1	0.0456
CCCCC(=O)c1ccc(OS(N)(=O)=O)cc1	0.574
CCCCCCC(=O)c1ccc(OS(N)(=O)=O)cc1	2.4
CCCCCCCC(=O)c1ccc(OS(N)(=O)=O)cc1	2.14
C[C@]12CC[C@@H]3c4ccc(OS(N)(=O)=O)cc4CCC3[C@@H]1CCC2=O (single isomer, unassigned) [EMATE]	24

a: CCCCCCCCC(=O)c1ccc(OS(N)(=O)=O)cc1
b: CCCC(=O)c1ccc(OS(N)(=O)=O)cc1
c: NS(=O)(=O)Oc1ccc(C(=O)c2ccccc2)cc1
Query: Given 3 compounds, produce a descending ranking by Potency. Answer by listing the labels in the requested order.
Reply: a, b, c

====

- assay target: Steryl-sulfatase (Homo sapiens)
- protocol details: Inhibitory activity against estrone sulfatase relative to Estrone-3-sulfamate (EMATE)
metric name: Potency

Completed entries (count: 5):
NS(=O)(=O)Oc1ccc(C(=O)/C=C/c2ccccc2)cc1 0.0019
Cc1cc(=O)oc2cc(OS(N)(=O)=O)ccc12 0.0417
CCCCC(=O)c1ccc(OS(N)(=O)=O)cc1 0.0239
CCCCCCC(=O)c1ccc(OS(N)(=O)=O)cc1 0.1
NS(=O)(=O)Oc1ccc(C(=O)c2ccccc2)cc1 0.0079

A: CCCCCCCC(=O)c1ccc(OS(N)(=O)=O)cc1
B: CC(=O)c1ccc(OS(N)(=O)=O)cc1
Query: // compare: A vs B , metric Potency, want the smaller // return label of chosen record
Reply: B
